B1: library; numbered along this chain (parent)
chain: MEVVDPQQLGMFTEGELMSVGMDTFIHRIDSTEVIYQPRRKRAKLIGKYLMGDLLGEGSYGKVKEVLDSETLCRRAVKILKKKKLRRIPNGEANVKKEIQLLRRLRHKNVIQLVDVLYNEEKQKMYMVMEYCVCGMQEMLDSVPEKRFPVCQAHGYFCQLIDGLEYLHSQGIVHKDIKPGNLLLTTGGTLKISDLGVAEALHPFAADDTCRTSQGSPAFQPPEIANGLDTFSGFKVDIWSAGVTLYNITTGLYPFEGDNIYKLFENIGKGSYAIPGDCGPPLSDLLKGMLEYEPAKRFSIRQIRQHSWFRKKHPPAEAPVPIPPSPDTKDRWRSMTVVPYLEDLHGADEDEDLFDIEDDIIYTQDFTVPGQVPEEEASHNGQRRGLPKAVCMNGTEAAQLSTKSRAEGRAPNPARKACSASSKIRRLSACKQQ

Variants of: B1
Assay: STK11 functional score (HeLa growth suppression), rescaled enrichment; synonymous median = 1, nonsense median = 0 (normalised score)
Conditions: with HeLa; variant type: missense
experimental-readout: STK11 functional score
Lab note: record just the number, no unit beside it.

Give the measured STK11 functional score of "L353T" .
1.45

Give the measured STK11 functional score of "P217E" .
0.536

Give the measured STK11 functional score of "I260S" .
1.44

Give the measured STK11 functional score of "L164V" .
0.774

Give the measured STK11 functional score of "Q37C" .
0.0953

Give the measured STK11 functional score of "R75Y" .
1.5

Give the measured STK11 functional score of "N247S" .
1.3

Give the measured STK11 functional score of "R409C" .
1.28

Give the measured STK11 functional score of "K175V" .
0.466

Give the measured STK11 functional score of "K416H" .
1.42

Give the measured STK11 functional score of "G15C" .
1.15

Give the measured STK11 functional score of "V320R" .
1.49
